I'd be grateful if you could share measured pKd for these entries.
biological target: T1, cynomolgus monkey transferrin receptor 1 (cTfR1) (cynomolgus monkey, UniProt H9EXL1 89-760 (rhesus entry)); test: competition ELISA, Fab
T1 construct: The ELISA against cTfR1 is not described in the text
T1 sequence (chain, as listed by the source): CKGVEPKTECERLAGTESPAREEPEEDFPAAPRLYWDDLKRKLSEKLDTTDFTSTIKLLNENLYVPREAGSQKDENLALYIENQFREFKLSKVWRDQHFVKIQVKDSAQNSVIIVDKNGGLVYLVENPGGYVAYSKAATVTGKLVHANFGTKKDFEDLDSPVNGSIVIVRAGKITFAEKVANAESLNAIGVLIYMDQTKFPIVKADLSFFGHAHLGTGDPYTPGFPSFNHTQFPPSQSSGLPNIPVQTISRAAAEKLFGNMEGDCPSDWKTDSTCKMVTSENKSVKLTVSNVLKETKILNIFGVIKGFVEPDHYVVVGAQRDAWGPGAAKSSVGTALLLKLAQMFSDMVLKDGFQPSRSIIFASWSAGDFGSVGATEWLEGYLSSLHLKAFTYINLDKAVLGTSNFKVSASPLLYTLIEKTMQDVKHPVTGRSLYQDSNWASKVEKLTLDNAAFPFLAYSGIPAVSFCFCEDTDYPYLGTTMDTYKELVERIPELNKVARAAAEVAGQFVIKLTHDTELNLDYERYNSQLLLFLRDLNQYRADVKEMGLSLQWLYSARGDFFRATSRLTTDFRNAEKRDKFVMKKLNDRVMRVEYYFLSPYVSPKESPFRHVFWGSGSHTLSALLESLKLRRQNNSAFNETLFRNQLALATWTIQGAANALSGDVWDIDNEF
pKd is defined as minus the log10 of a concentration measured in mol/L.

[Q] Quickly give me recorded pKd for Fab0064 (Fab, V domains shown) VH: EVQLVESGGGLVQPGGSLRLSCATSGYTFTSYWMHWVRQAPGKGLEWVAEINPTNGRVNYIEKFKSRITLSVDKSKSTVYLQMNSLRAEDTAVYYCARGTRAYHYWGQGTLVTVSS VL: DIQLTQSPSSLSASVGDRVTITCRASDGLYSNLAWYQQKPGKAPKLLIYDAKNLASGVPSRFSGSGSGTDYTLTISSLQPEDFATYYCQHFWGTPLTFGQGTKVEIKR
[A] 8.30

[Q] Quickly give me recorded pKd for Fab0072 (Fab, V domains shown) VH: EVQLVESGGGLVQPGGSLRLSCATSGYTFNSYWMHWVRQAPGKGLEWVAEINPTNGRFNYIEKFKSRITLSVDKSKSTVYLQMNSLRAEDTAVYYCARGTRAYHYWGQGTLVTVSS VL: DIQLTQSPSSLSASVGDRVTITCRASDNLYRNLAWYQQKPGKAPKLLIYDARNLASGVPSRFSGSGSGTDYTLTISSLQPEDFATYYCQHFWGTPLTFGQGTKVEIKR
[A] 7.93

[Q] Quickly give me recorded pKd for Fab0071 (Fab, V domains shown) VH: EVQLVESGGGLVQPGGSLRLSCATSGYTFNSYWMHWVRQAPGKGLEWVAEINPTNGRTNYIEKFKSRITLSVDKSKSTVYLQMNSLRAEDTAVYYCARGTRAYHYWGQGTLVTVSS VL: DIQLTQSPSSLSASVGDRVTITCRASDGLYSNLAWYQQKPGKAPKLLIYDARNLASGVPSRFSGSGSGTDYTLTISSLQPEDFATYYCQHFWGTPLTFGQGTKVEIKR
[A] 7.27
